Would you mind telling me the reported IC50 of each entry?
Target or test system: Dual specificity calcium/calmodulin-dependent 3',5'-cyclic nucleotide phosphodiesterase 1A (Homo sapiens, UniProt P54750)
Sequence (P54750 whole entry): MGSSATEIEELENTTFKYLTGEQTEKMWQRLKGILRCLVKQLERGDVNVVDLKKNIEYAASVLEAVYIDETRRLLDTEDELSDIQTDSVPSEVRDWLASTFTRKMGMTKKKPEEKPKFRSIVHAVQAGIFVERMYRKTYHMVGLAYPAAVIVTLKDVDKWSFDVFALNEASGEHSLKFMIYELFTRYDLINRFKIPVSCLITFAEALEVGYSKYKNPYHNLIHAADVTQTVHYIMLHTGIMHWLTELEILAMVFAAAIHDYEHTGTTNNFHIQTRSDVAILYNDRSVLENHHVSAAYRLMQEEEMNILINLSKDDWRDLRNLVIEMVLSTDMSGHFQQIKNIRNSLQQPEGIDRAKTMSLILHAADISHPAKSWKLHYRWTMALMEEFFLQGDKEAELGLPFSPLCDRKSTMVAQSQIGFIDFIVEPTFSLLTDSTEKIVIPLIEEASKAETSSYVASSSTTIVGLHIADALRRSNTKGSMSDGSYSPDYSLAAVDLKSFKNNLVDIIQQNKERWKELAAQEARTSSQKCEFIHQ
Assay details: Inhibition Assay: PDE1A, PDE1B and PDE1C assays were performed as follows: the assays were performed in 60 μL samples containing a fixed amount of the PDE1 enzyme (sufficient to convert 20-25% of the cyclic nucleotide substrate), a buffer (50 mM HEPES pH 7.6; 10 mM MgCl2; 0.02% Tween20), 0.1 mg/ml BSA, 15 nM tritium labelled cAMP and varying amounts of inhibitors. Reactions were initiated by …
Description: Reactions were initiated by addition of the cyclic nucleotide substrate, and reactions were allowed to proceed for 1 hr at room temperature before being terminated through mixing with 20 μL (0.2 mg) yttrium silicate SPA beads (PerkinElmer).

[[record]]
line_notation = "CCOc1ncccc1-c1cc(NCc2cccn3c(C)nnc23)c2c(n1)c(C)nn2C(C)C"
observed_property = "IC50"
test_value = "3 nM"


Consider the record given below.
### Prompt Give the value of IC50 reported for the following: CCOc1ncccc1-c1cc(NCc2cccc3ocnc23)c2c(n1)c(C)nn2C(C)C
### Response 14 nM

----------
Answer each item with its documented pIC50.
Target or test system: Dual specificity calcium/calmodulin-dependent 3',5'-cyclic nucleotide phosphodiesterase 1C (Homo sapiens, UniProt Q14123)
Sequence (Q14123 whole entry): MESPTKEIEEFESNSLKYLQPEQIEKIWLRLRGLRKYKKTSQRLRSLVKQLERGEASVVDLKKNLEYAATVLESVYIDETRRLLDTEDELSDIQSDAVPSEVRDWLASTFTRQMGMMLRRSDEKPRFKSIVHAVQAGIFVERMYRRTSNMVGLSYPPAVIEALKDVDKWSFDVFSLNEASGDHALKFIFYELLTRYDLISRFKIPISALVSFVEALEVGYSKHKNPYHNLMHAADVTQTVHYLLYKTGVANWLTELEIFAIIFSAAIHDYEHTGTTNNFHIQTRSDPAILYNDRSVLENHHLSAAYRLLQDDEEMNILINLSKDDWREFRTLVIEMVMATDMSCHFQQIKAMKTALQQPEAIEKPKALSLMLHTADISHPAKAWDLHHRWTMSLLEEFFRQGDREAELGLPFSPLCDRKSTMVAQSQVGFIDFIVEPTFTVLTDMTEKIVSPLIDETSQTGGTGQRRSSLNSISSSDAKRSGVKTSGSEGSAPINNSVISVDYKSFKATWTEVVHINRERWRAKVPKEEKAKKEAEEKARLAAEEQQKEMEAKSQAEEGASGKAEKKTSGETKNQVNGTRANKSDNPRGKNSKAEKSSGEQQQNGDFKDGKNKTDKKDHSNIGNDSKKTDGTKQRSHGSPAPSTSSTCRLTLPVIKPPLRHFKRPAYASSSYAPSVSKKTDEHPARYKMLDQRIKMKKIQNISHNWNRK
Assay details: Inhibition Assay: PDE1A, PDE1B and PDE1C assays were performed as follows: the assays were performed in 60 μL samples containing a fixed amount of the PDE1 enzyme (sufficient to convert 20-25% of the cyclic nucleotide substrate), a buffer (50 mM HEPES pH 7.6; 10 mM MgCl2; 0.02% Tween20), 0.1 mg/ml BSA, 15 nM tritium labelled cAMP and varying amounts of inhibitors. Reactions were initiated by …
Description: Reactions were initiated by addition of the cyclic nucleotide substrate, and reactions were allowed to proceed for 1 hr at room temperature before being terminated through mixing with 20 μL (0.2 mg) yttrium silicate SPA beads (PerkinElmer).
Numbers only, as −log10 of the molar value.

[[record]]
line_notation = "CCOc1ncccc1-c1cc(NCc2cccc3ocnc23)c2c(n1)c(C)nn2C(C)C"
observed_property = "pIC50"
test_value = 7.41


### Prompt Return pIC50 for the following compound: CCOc1ncccc1-c1cc(NCc2cccn3c(C)nnc23)c2c(n1)c(C)nn2C(C)C
### Response 8.21
